Reported AC50 values, 5-hydroxytryptamine receptor 2B (Homo sapiens).

// worked examples, AC50 included
CCOc1cc2ncc(C#N)c(Nc3ccc(OCc4ccccn4)c(Cl)c3)c2cc1NC(=O)/C=C/CN(C)C : > 10 µM
CC(=O)Oc1cccc2c1C(=O)c1c(OC(C)=O)cc(C(=O)O)cc1C2=O : > 30 µM

Consider now this further compound.
Task: For "CCOC(=O)[C@H](CCc1ccccc1)N[C@@H](C)C(=O)N1Cc2ccccc2C[C@H]1C(=O)O" , what is its reported AC50?
Output: > 10 µM

----------
A collection of compounds and their measured AC50
- target-entity: Beta-1 adrenergic receptor (Homo sapiens, UniProt P08588); also: assay procedure not described here
- Sequence (P08588 whole entry): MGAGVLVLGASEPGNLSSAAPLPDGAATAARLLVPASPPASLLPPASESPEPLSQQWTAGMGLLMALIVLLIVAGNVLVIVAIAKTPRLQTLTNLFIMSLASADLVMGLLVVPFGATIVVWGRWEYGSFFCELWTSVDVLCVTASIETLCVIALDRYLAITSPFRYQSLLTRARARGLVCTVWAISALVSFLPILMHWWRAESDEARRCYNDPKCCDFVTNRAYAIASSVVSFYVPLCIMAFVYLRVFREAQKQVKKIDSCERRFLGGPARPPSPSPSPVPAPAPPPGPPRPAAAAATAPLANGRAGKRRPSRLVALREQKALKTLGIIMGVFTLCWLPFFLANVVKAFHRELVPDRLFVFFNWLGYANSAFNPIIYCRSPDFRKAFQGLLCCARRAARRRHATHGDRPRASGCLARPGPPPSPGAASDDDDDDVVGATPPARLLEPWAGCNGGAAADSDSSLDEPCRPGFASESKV
- Type: functional

Field: example entries. Status: answers known.
CCOC(=O)O[C@]1(C(=O)COC(=O)CC)CC[C@H]2[C@@H]3CCC4=CC(=O)C=C[C@]4(C)[C@H]3[C@@H](O)C[C@@]21C [PREDNICARBATE] : > 10 µM
CC(C)/N=c1\cc2n(-c3ccc(Cl)cc3)c3ccccc3nc-2cc1Nc1ccc(Cl)cc1 : > 30 µM
C[C@@H](O)[C@H]1C(=O)N2C(C(=O)O)=C(SCCN=CN)C[C@H]12 [IMIPENEM ANHYDROUS] : > 300 µM
CC(C)C[C@H](NC(=O)[C@H](Cc1ccccc1)NC(=O)c1cnccn1)B(O)O : > 30 µM
O=C(c1ccccc1)c1ccc2n1CCC2C(=O)O (stereo unspecified) : > 10 µM
CC(C)CN(C[C@@H](O)[C@H](Cc1ccccc1)NC(=O)O[C@H]1CCOC1)S(=O)(=O)c1ccc(N)cc1 : > 10 µM

Task: Would you mind telling me what AC50 value was observed for "O=C(O)[C@H]1/C(=C/CO)O[C@@H]2CC(=O)N21" ?
Output: > 30 µM

Task: Given "CS(=O)(=O)NC(=O)CCC/C=C\C[C@H]1C(=O)C[C@@H](O)[C@@H]1/C=C/[C@@H](O)COc1ccccc1" , state its recorded AC50.
Output: > 30 µM

Task: Any idea what AC50 was measured for "O=C1CN=C(c2ccccc2Cl)c2cc([N+](=O)[O-])ccc2N1" ?
Output: > 10 µM

Task: If you can, please state the reported AC50 value of OCC(O)COc1ccc(Cl)cc1 (stereo unspecified) .
Output: > 10 µM

Task: Given "Nc1cc(N2CCCCC2)nc(N)[n+]1[O-]" , state its recorded AC50.
Output: > 30 µM

----------
- target-entity: D(1A) dopamine receptor (Homo sapiens); also: assay procedure not described here
- Sequence (P21728 whole entry): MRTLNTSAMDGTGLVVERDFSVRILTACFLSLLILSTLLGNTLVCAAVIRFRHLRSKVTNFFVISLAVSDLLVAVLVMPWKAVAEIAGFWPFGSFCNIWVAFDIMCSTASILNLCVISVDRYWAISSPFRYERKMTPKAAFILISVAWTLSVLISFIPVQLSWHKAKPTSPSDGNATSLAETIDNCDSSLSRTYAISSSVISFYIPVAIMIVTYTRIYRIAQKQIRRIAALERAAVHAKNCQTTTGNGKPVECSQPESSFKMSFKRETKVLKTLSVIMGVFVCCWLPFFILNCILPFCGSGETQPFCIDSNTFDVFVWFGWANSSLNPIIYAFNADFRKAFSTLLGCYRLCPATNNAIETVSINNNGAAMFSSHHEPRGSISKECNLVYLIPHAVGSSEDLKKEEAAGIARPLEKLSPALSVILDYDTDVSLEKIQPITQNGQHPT
- Assay type: functional, cell-based
# maps each entry to its AC50

Known results for molecules:
CC(C)(CO)c1cc2cc(NC(=O)C3(c4ccc5c(c4)OC(F)(F)O5)CC3)c(F)cc2n1C[C@@H](O)CO [TEZACAFTOR] : > 30 µM
CC1NCCOC1c1ccccc1 (stereo unspecified) [PHENMETRAZINE] : > 10 µM
CCNC(=O)CCC/C=C\C[C@@H]1[C@@H](/C=C/[C@@H](O)CCc2ccccc2)[C@H](O)C[C@@H]1O [BIMATOPROST] : > 30 µM
CCCCC[C@H](O)CC[C@@H]1[C@H]2Cc3cccc(OCC(=O)O)c3C[C@H]2C[C@H]1O [TREPROSTINIL] : > 30 µM
CO[C@@H]1[C@@H](OC(N)=O)[C@@H](O)[C@H](Oc2ccc3c(O)c(NC(=O)c4ccc(O)c(CC=C(C)C)c4)c(=O)oc3c2C)OC1(C)C [NOVOBIOCIN] : > 30 µM
CCC1(CC)C(=O)NC(=O)N(C)C1=O [METHARBITAL] : > 10 µM
O=C(O)c1nn(Cc2ccc(Cl)cc2Cl)c2ccccc12 [LONIDAMINE] : > 30 µM
CCc1ccc(C(=O)C(C)CN2CCCCC2)cc1 (stereo unspecified) [EPERISONE] : > 30 µM
CCC(NC(C)C)C(O)c1ccc(O)c(O)c1 (stereo unspecified) [ISOETHARINE] : > 30 µM
CC1(C)O[C@@H]2C[C@H]3[C@@H]4CCC5=CC(=O)C=C[C@]5(C)[C@@]4(F)[C@@H](O)C[C@]3(C)[C@]2(C(=O)CO)O1 [TRIAMCINOLONE ACETONIDE] : > 30 µM

Query molecule follows.
Task: What does the data say about its AC50? Entry: CCCCCCOC(=O)NC(=N)c1ccc(NCc2nc3cc(C(=O)N(CCC(=O)OCC)c4ccccn4)ccc3n2C)cc1 [DABIGATRAN ETEXILATE]
Output: > 30 µM

----------
- target-entity: Gamma-aminobutyric acid receptor subunit alpha-1 (Rattus norvegicus, UniProt P62813); also: assay procedure not described here
- Sequence (P62813 whole entry): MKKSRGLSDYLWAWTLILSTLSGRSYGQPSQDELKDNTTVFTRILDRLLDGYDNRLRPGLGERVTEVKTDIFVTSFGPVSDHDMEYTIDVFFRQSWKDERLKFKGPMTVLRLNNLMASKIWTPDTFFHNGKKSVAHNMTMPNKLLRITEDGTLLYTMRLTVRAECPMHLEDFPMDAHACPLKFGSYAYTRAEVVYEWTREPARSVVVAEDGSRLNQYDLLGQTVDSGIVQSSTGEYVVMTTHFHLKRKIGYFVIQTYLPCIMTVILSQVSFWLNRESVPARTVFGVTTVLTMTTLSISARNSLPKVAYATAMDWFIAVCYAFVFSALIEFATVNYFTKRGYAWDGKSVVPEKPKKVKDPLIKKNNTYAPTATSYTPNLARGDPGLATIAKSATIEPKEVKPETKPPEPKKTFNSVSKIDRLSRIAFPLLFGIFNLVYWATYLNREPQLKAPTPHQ
- Assay type: functional
Listed here: items and their measured AC50.

Use these answered entries as a reference point.
C[C@]12CCC(=O)C=C1C=C[C@@H]1[C@@H]2CC[C@@]2(C)[C@H]1CC[C@@]21CCC(=O)O1 [CANRENONE] : > 30 µM
C=CC1=C(C(=O)O)N2C(=O)[C@@H](NC(=O)/C(=N\O)c3csc(N)n3)[C@H]2SC1 : > 10 µM
CC(C)/N=c1\cc2n(-c3ccc(Cl)cc3)c3ccccc3nc-2cc1Nc1ccc(Cl)cc1 [CLOFAZIMINE] : 20 µM
CC(=O)OCC(=O)[C@@]1(O)CC[C@H]2[C@@H]3CCC4=CC(=O)CC[C@]4(C)[C@@]3(F)[C@@H](O)C[C@@]21C [FLUDROCORTISONE ACETATE] : > 30 µM
CC(=O)OCC1=C(C(=O)O)N2C(=O)[C@@H](NC(=O)CSc3ccncc3)[C@H]2SC1 [CEPHAPIRIN] : > 10 µM

Task: Entry CN(Cc1ccc(C(C)(C)C)cc1)Cc1cccc2ccccc12 [BUTENAFINE] : reported AC50 = ?
Output: > 10 µM

Task: Dear colleague, I am looking for the recorded AC50 of the following molecule: "NS(=O)(=O)c1ccc(N2CCCCS2(=O)=O)cc1"
Output: > 30 µM

Task: Recorded AC50 for NCC1(CC(=O)O)CCCCC1 [GABAPENTIN] , please?
Output: > 30 µM

Task: # AC50 lookup, item CN(C)CCOC(=O)C(c1ccccc1)C1(O)CCCC1 (stereo not given) [CYCLOPENTOLATE]
Output: > 10 µM

Task: Need AC50, item O=C(O)COC(=O)Cc1ccccc1Nc1c(Cl)cccc1Cl [ACECLOFENAC]
Output: > 10 µM

----------
- target-entity: Muscarinic acetylcholine receptor M1 (Homo sapiens, UniProt P11229); also: assay procedure not described here
- Sequence (P11229 whole entry): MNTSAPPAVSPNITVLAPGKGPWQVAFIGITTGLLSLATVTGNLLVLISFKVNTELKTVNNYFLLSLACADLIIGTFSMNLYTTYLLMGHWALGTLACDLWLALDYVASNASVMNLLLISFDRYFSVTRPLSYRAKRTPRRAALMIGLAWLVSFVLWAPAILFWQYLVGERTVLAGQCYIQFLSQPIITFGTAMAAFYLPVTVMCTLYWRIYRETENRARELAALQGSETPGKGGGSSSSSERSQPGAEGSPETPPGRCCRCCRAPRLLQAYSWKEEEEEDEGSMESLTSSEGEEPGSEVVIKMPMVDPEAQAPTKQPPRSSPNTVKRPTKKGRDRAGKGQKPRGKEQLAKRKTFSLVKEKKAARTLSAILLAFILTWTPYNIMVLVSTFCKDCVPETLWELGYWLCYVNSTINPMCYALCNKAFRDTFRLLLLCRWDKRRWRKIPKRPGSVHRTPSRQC
- Type: functional, cell-based
measured-attribute: AC50 (µM)
# unit: µM | format: bare number

CN1CCCC(CC2c3ccccc3Sc3ccccc32)C1 (centres undefined) : 0.0109

Next:
Task: Form field: reported AC50 of "Cc1ccc(C(C)C)c(O)c1"
Output: 13.9

----------
- target-entity: Cannabinoid receptor 1 (Homo sapiens, UniProt P21554); also: assay procedure not described here
- Sequence (P21554 whole entry): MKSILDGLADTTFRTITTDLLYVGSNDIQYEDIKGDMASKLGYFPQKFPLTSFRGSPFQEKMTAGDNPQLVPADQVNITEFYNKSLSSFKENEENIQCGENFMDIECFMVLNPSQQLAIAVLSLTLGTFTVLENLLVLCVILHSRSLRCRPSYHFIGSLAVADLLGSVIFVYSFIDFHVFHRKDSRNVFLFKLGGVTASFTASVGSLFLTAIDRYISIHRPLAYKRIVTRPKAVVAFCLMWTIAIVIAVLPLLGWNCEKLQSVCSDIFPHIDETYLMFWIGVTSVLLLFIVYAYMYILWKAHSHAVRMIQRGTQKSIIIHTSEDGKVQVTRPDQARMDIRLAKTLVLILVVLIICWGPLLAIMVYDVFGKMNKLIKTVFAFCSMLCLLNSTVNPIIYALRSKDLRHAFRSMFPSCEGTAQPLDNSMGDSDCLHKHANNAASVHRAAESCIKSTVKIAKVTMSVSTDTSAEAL
Some molecules, each annotated with its measured AC50.

Below: 5 molecules and their reported AC50.
CN(Cc1ccc(C(C)(C)C)cc1)Cc1cccc2ccccc12 [BUTENAFINE] : > 10 µM
OCCN(CCO)c1nc(N2CCCCC2)c2nc(N(CCO)CCO)nc(N3CCCCC3)c2n1 [DIPYRIDAMOLE] : > 30 µM
CC(C(=O)O)c1ccc(C(=O)c2ccccc2)s1 (stereo not given) [TIAPROFENIC ACID] : > 10 µM
CC(=O)Oc1ccccc1C(=O)O [ASPIRIN] : > 10 µM
CCC(=O)[C@@]1(C)[C@H](C)C[C@H]2[C@@H]3CCC4=CC(=O)C=C[C@]4(C)[C@H]3[C@@H](O)C[C@@]21C [RIMEXOLONE] : 6.91 µM

Task: Item: CCN(CC)CCn1c(=O)c(Cc2ccc(OC)cc2)nc2ccccc21 [CAROVERINE] Test system: Cannabinoid receptor 1 (Homo sapiens, UniProt P21554) Read-out: AC50 Value: ?; also: assay procedure not described here
Output: > 30 µM

Task: Requested read-out AC50, target or system Cannabinoid receptor 1 (Homo sapiens, UniProt P21554), entry CN(C)CCOC(=O)C(c1ccccc1)C1(O)CCCC1 (stereo not given) [CYCLOPENTOLATE]; also: assay procedure not described here
Output: > 10 µM

----------
- target-entity: Alpha-1A adrenergic receptor (Homo sapiens, UniProt P35348); also: assay procedure not described here
- Sequence (P35348 whole entry): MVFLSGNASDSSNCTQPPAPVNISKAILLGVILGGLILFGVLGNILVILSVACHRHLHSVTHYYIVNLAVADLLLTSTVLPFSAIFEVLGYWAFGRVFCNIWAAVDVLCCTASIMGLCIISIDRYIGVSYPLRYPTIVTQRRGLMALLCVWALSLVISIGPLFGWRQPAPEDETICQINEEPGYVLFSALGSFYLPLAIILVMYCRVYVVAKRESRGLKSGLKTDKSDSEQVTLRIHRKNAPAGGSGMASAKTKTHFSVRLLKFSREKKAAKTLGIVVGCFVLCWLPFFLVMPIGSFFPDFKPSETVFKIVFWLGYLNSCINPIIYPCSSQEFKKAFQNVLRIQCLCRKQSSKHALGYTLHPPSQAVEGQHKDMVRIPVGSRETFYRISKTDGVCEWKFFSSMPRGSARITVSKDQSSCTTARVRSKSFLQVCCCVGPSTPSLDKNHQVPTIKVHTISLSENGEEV
Measured AC50 accompanies every entry in the list below.

Reference set (2 entries):
C[C@H](CS)C(=O)N1CCC[C@H]1C(=O)O [CAPTOPRIL] : > 10 µM
CC1CC(OC(=O)C(O)c2ccccc2)CC(C)(C)C1 (stereo not drawn) [CYCLANDELATE] : > 10 µM

Task: Which value of AC50 has been reported for CN(C)[C@@H]1C(O)=C(C(=O)NCN2CCCC2)C(=O)[C@@]2(O)C(O)=C3C(=O)c4c(O)cccc4[C@@](C)(O)[C@H]3C[C@@H]12 [ROLITETRACYCLINE] in the records?
Output: > 10 µM

This collection of values is drawn from ChEMBL document CHEMBL5291721.
